These data points were gathered from patent US6060504A.

// solubility lookup, one value per entry
TEST: Solubility in methanol
Assay type: physicochemical
CONDITION_NOTES: organic solvent or mixture, at 20° C.
Counter-ions that a name gives are not always drawn.
Numbers only here, please. The scale is mg/mL.

INSERT INTO results (compound, result_type, uom, measured_result) VALUES
  ('CN(C(=O)C(c1ccccc1)c1ccccc1)[C@H](CN1CC[C@H](O)C1)c1ccccc1.Cl', 'solubility', 'mg/mL', 42.6);

# evaluate next
The reported value for CN(C(=O)C(c1ccccc1)c1ccccc1)[C@H](CN1CC[C@H](O)C1)c1ccccc1 [Comparison Example, hydrochloride] in terms of solubility is 63.1
